Data credit: ChEMBL document CHEMBL5665443

Measurement Target: Endonuclease 8-like 2 (Homo sapiens) (UniProt Q969S2);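 note: fluorescence at 594 nm reports NEIL2 cutting and release of a quenched double-stranded DNA oligo substrate, reduced signal read as inhibition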
Sequence (Q969S2 whole entry): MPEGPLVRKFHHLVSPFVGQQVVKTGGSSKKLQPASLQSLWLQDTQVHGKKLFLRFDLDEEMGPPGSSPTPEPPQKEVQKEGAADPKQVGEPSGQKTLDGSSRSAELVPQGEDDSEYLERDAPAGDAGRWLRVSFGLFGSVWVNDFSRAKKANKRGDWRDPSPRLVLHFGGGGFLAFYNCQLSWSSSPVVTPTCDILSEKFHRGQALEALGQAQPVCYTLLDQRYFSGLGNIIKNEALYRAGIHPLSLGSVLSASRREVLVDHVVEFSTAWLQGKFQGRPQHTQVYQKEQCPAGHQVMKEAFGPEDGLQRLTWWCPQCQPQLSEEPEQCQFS
Stated Conditions: Compound Concentration 10.0 uM, Hit No
Measure: inhibition (%)
Write the number in % without appending the unit.

The examples below pair each entry with its known result.
Compound	Measurement Target	inhibition (%)
COc1ccc2cc(S(=O)(=O)N[C@H](CC(=O)N[C@H](Cc3ccc(CN4[C@H](C)CCC[C@@H]4C)cc3)C(=O)N(C)C(C)C)c3ccc4c(c3)OCO4)ccc2c1	Endonuclease 8-like 2 (Homo sapiens) (UniProt Q969S2)	10.8
CCCCN(Cc1ccccc1)C(=O)c1ccc(S(=O)(=O)Nc2ccccc2)cc1	Endonuclease 8-like 2 (Homo sapiens) (UniProt Q969S2)	-10
COC(=O)C1=C(C)NC(C)=C(C(=O)OCCCN2CCC(c3ccccc3)(c3ccccc3)CC2)[C@H]1c1cccc([N+](=O)[O-])c1	Endonuclease 8-like 2 (Homo sapiens) (UniProt Q969S2)	13.7
C[C@@](Cc1c[nH]c2ccccc12)(NC(=O)Nc1ccc([N+](=O)[O-])cc1)C(=O)NCC1(c2ccccn2)CCCCC1	Endonuclease 8-like 2 (Homo sapiens) (UniProt Q969S2)	5.26
Nc1nc(NCCc2ccc(O)cc2)nc2nc(-c3ccco3)nn12	Endonuclease 8-like 2 (Homo sapiens) (UniProt Q969S2)	6

Measured inhibition of CC[C@H](Nc1c(C#N)c(-c2ccc(-c3cccc(C)c3F)cc2)nc2cnccc12)C(=O)O : -0.764

Measured inhibition of OC1(c2ccc(Cl)cc2)CCN(Cc2c[nH]c3ccccc23)CC1 : 5.51

Measured inhibition of CN(C)CC[C@@H](c1ccc(Cl)cc1)c1ccccn1 : 12

Measured inhibition of COc1ccccc1N1CCN(CCCCNC(=O)c2ccc3ccccc3c2)CC1 : 11
